All values here come from BigSolDB 2.1.

Settings: in water, 278.15 K
endpoint: solubility (mole fraction)

[I] CCCC(N)=O
[II] CCC(N)=O
Ask: Consider I and II . Which of these has its solubility (mole fraction) at a higher number? Reply briefly: the label of your chosen item.
Reply: II

###

Details: in water, 283.15 K
endpoint: solubility (mole fraction)

[a] CCCC(N)=O
[b] CCC(N)=O
Ask: Consider a and b . Which of these has its solubility (mole fraction) at a higher number? Reply briefly: the label of your chosen item.
Reply: b

###

Conditions: in water, 308.15 K
endpoint: solubility (mole fraction)

[I] CCCC(N)=O
[II] CCC(N)=O
Ask: Of I versus II , which is the one with smaller reported solubility (mole fraction)? Reply briefly: the label of your chosen item.
Reply: I

###

Conditions: in water, 288.15 K
endpoint: solubility (mole fraction)

[a] CCCC(N)=O
[b] CCC(N)=O
Ask: Of a versus b , which is the one with smaller reported solubility (mole fraction)? Reply briefly: the label of your chosen item.
Reply: a
(a: 0.026, b: 0.195)

###

Conditions: in water, 328.15 K
endpoint: solubility (mole fraction)

[I] CCCC(N)=O
[II] CCC(N)=O
Ask: Consider I and II . Which of these has its solubility (mole fraction) at a higher number? Reply briefly: the label of your chosen item.
Reply: II
(II: 0.527, I: 0.152)

###

Settings: in water, 293.15 K
endpoint: solubility (mole fraction)

[A] CCCC(N)=O
[B] CCC(N)=O
Ask: Of A versus B , which is the one with smaller reported solubility (mole fraction)? Reply briefly: the label of your chosen item.
Reply: A
(A: 0.0331, B: 0.232)

###

Details: in water, 323.15 K
endpoint: solubility (mole fraction)

[I] CCCC(N)=O
[II] CCC(N)=O
Ask: Of I versus II , which is the one with smaller reported solubility (mole fraction)? Reply briefly: the label of your chosen item.
Reply: I

###

Details: in water, 318.15 K
endpoint: solubility (mole fraction)

[a] CCCC(N)=O
[b] CCC(N)=O
Ask: Consider a and b . Which of these has its solubility (mole fraction) at a higher number? Reply briefly: the label of your chosen item.
Reply: b

###

Conditions: in water, 303.15 K
endpoint: solubility (mole fraction)

[a] CCCC(N)=O
[b] CCC(N)=O
Ask: Consider a and b . Which of these has its solubility (mole fraction) at a higher number? Reply briefly: the label of your chosen item.
Reply: b
(b: 0.315, a: 0.0575)

###

Details: in water, 313.15 K
endpoint: solubility (mole fraction)

[P] CCC(N)=O
[Q] CCCC(N)=O
Ask: Consider P and Q . Which of these has its solubility (mole fraction) at a higher number? Reply briefly: the label of your chosen item.
Reply: P
(P: 0.4, Q: 0.0895)
